Tested on: B6 mice
Procedure text: Triglyceride (TG) and total cholesterol (TC) in pancreatic tissue of high-fat diet mice
Assay type: in vivo
Test context: 2.5 mg/kg tube fed once a day, 4 weeks of administration
Let's look at some molecules and their measured pancreatic TG.
Only the number, expressed in mg/g pancreatic tissue, is required.

Guide cases for pancreatic TG, answers given:
*Q* Fill blank: measured pancreatic TG of the molecule O=C(CCc1ccc(O)cc1)c1c(O)cc(O)cc1O[C@@H]1O[C@H](CO)[C@@H](O)[C@H](O)[C@H]1O [phloridzin] is ____.
*A* 23.3

*Q* Fill blank: measured pancreatic TG of the molecule COc1ccc([C@@H]2CC(=O)c3c(O)cc(O)cc3O2)cc1O [hesperitin] is ____.
*A* 5.7

*Q* Fill blank: measured pancreatic TG of the molecule O=C1C[C@@H](c2ccc(O)c(O)c2)Oc2cc(O)cc(O)c21 [eriodictyol] is ____.
*A* 4.5

Please turn your attention to the following entry.
*Q* Fill blank: measured pancreatic TG of the molecule O=c1c(-c2ccc(O)cc2)coc2c([C@@H]3O[C@H](CO)[C@@H](O)[C@H](O)[C@H]3O)c(O)ccc12 [puerarin] is ____.
*A* 17.3

---

Tested on: B6 mice
Procedure text: Blood glucose analysis (GLU) in high-fat diet mice
Format: in vivo
Test context: fasted overnight, 1.5 mg/kg, 4 weeks of administration
Experimental: The experimental animals employed were B6 mice. The number of test animals in each group of the pre-test was four or more, and the number of test animals in each group of the confirmation test was twelve or more. […] The body weight was recorded once a week. […] Blood glucose analysis was performed with Roche's ACCU-CHEK Active blood glucose meter. […] The blood glucose data shown on the blood glucose meter were recorded. […]
Let's look at some molecules and their measured GLU.

Guide cases for GLU, answers given:
*Q* Fill blank: measured GLU of the molecule CC1CCC(C(C)C)C(O)C1 (stereo not shown) [menthol] is ____.
*A* 125.7 ± 33.5 mg/dL

*Q* Fill blank: measured GLU of the molecule O=C1NS(=O)(=O)c2ccccc21 [saccharin] is ____.
*A* 92.0 ± 9.6 mg/dL

*Q* Fill blank: measured GLU of the molecule OC[C@@H](O)[C@@H](O)[C@H](O)[C@H](O)CO [mannitol] is ____.
*A* 112.2 ± 32.0 mg/dL

Please turn your attention to the following entry.
*Q* Fill blank: measured GLU of the molecule OC[C@H]1O[C@H](O[C@]2(CCl)O[C@H](CCl)[C@@H](O)[C@@H]2O)[C@H](O)[C@@H](O)[C@H]1Cl [sucralose] is ____.
*A* 128.7 ± 19.3 mg/dL

src = patent US20180325840A1
